This collection of values is drawn from patent US10738094B2.

EXPERIMENTAL TARGET: HLA-A*02:01 (Homo sapiens, UniProt P04439, D140Y/D185E/D98H/E176V/E277Q/G131W/G231S/I119V/I121R/I166T/I218V/L300P/L318F/N151K/N90K/P208A/P217A/Q86G/Q94H/R138H/R169H/T345S)
PROCEDURE SUMMARY: MHC binding assay (UV-ligand exchange, beta2m ELISA)
CONDITION NOTES: binding to HLA-A*02:01 ranged by peptide exchange yield (UV-ligand exchange, β2m ELISA)
QUANTITY KIND: Peptide exchange

Some substances with known Peptide exchange results, for comparison:
>>> recorded_measurement("100 (YLLSTNAQL; listed as Homo sapiens) [compound 100]")
"“++++” (≥75% = ++++)"
>>> recorded_measurement("86 (NLIGKIENV; listed as Homo sapiens) [compound 86]")
"“+++” (≥50 = +++)"
>>> recorded_measurement("148 (ALNPEIVSV; listed as Homo sapiens) [compound 148]")
"“++” (≥20% = ++)"
>>> recorded_measurement("277 (LLPPLESLATV; listed as Homo sapiens) [compound 277]")
"“++” (≥20% = ++)"
>>> recorded_measurement("531 (YTLPIASSIRL; listed as Homo sapiens) [compound 531]")
"“+++” (≥50 = +++)"
>>> recorded_measurement("223 (ALLENIALYL; listed as Homo sapiens) [compound 223]")
"“+++” (≥50 = +++)"
>>> recorded_measurement("339 (GLWEIENNPTVKA; listed as Homo sapiens) [compound 339]")
"“++++” (≥75% = ++++)"
>>> recorded_measurement("589 (KLYPQLPAEI; listed as Homo sapiens) [compound 589]")
"“+++” (≥50 = +++)"
>>> recorded_measurement("603 (FLIEPEHVNTV; listed as Homo sapiens) [compound 603]")
"“++” (≥20% = ++)"
>>> recorded_measurement("54 (SLLEQGKEPWMV; listed as Homo sapiens) [compound 54]")
"“+++” (≥50 = +++)"

Look up Peptide exchange for this substance: 173 (LLDSASAGLYL; listed as Homo sapiens) [compound 173]
“+++” (≥50 = +++)

----------
EXPERIMENTAL TARGET: HLA-A*02:01 (Homo sapiens, UniProt P04439, D140Y/D185E/D98H/E176V/E277Q/G131W/G231S/I119V/I121R/I166T/I218V/L300P/L318F/N151K/N90K/P208A/P217A/Q86G/Q94H/R138H/R169H/T345S)
PROCEDURE SUMMARY: MHC binding assay (UV-ligand exchange, beta2m ELISA)
CONDITION NOTES: binding to HLA-A*02:01 ranged by peptide exchange yield (UV-ligand exchange, β2m ELISA)
QUANTITY KIND: Peptide exchange

Some substances with known Peptide exchange results, for comparison:
>>> recorded_measurement("563 (WLLPYNGVTV; listed as Homo sapiens) [compound 563]")
"“+++” (≥50 = +++)"
>>> recorded_measurement("158 (KLFDVDEDGYI; listed as Homo sapiens) [compound 158]")
"“+++” (≥50 = +++)"
>>> recorded_measurement("271 (LVYPLELYPA; listed as Homo sapiens) [compound 271]")
"“+++” (≥50 = +++)"
>>> recorded_measurement("85 (KMSELRVTL; listed as Homo sapiens) [compound 85]")
"“+++” (≥50 = +++)"

We next turn to a different substance, shown below.
Look up Peptide exchange for this substance: 182 (MLLEAPGIFL; listed as Homo sapiens) [compound 182]
“+++” (≥50 = +++)

----------
EXPERIMENTAL TARGET: HLA-A*02:01 (Homo sapiens, UniProt P04439, D140Y/D185E/D98H/E176V/E277Q/G131W/G231S/I119V/I121R/I166T/I218V/L300P/L318F/N151K/N90K/P208A/P217A/Q86G/Q94H/R138H/R169H/T345S)
PROCEDURE SUMMARY: MHC binding assay (UV-ligand exchange, beta2m ELISA)
CONDITION NOTES: binding to HLA-A*02:01 ranged by peptide exchange yield (UV-ligand exchange, β2m ELISA)
QUANTITY KIND: Peptide exchange

>>> recorded_measurement("287 (FLNEFFLNV; listed as Homo sapiens) [compound 287]")
"“+++” (≥50 = +++)"
>>> recorded_measurement("325 (FIMPATVADATAV; listed as Homo sapiens) [compound 325]")
"“+++” (≥50 = +++)"
>>> recorded_measurement("253 (GLDAATATV; listed as Homo sapiens) [compound 253]")
"“++” (≥20% = ++)"
>>> recorded_measurement("491 (GLNDRSDAV; listed as Homo sapiens) [compound 491]")
"“++” (≥20% = ++)"
>>> recorded_measurement("8 (FTLGNVVGMYL; listed as Homo sapiens) [compound 8]")
"“++++” (≥75% = ++++)"

Look up Peptide exchange for this substance: 559 (VTVPPGPSL; listed as Homo sapiens) [compound 559]
“++” (≥20% = ++)

Look up Peptide exchange for this substance: 49 (YLPAVFEEV; listed as Homo sapiens) [compound 49]
“+++” (≥50 = +++)

Look up Peptide exchange for this substance: 98 (LIIDQADIYL; listed as Homo sapiens) [compound 98]
“+++” (≥50 = +++)

Look up Peptide exchange for this substance: 557 (KLYDDMIRL; listed as Homo sapiens) [compound 557]
“+++” (≥50 = +++)

----------
EXPERIMENTAL TARGET: HLA-A*02:01 (Homo sapiens, UniProt P04439, D140Y/D185E/D98H/E176V/E277Q/G131W/G231S/I119V/I121R/I166T/I218V/L300P/L318F/N151K/N90K/P208A/P217A/Q86G/Q94H/R138H/R169H/T345S)
PROCEDURE SUMMARY: MHC binding assay (UV-ligand exchange, beta2m ELISA)
CONDITION NOTES: binding to HLA-A*02:01 ranged by peptide exchange yield (UV-ligand exchange, β2m ELISA)
QUANTITY KIND: Peptide exchange

>>> recorded_measurement("242 (AIAYILQGV; listed as Homo sapiens) [compound 242]")
"“++” (≥20% = ++)"
>>> recorded_measurement("405 (ALYDVFLEV; listed as Homo sapiens) [compound 405]")
"“++” (≥20% = ++)"
>>> recorded_measurement("21 (VLDELDMEL; listed as Homo sapiens) [compound 21]")
"“++” (≥20% = ++)"
>>> recorded_measurement("154 (ALDDGTPAL; listed as Homo sapiens) [compound 154]")
"“++” (≥20% = ++)"
>>> recorded_measurement("164 (ALLPQPKNLTV; listed as Homo sapiens) [compound 164]")
"“+++” (≥50 = +++)"

Look up Peptide exchange for this substance: 280 (VLPDPEVLEAV; listed as Homo sapiens) [compound 280]
“+++” (≥50 = +++)

Look up Peptide exchange for this substance: 492 (SLFDGFADGLGV; listed as Homo sapiens) [compound 492]
“+++” (≥50 = +++)

Look up Peptide exchange for this substance: 562 (YLEELPEKLKL; listed as Homo sapiens) [compound 562]
“+++” (≥50 = +++)

Look up Peptide exchange for this substance: 299 (YLLETSGNL; listed as Homo sapiens) [compound 299]
“+++” (≥50 = +++)

Look up Peptide exchange for this substance: 69 (FQLDPSSGVLVTV; listed as Homo sapiens) [compound 69]
“+++” (≥50 = +++)

Look up Peptide exchange for this substance: 102 (YLFESEGLVL; listed as Homo sapiens) [compound 102]
“+++” (≥50 = +++)

Look up Peptide exchange for this substance: 46 (ILTEENIHL; listed as Homo sapiens) [compound 46]
“+++” (≥50 = +++)

----------
EXPERIMENTAL TARGET: HLA-A*02:01 (Homo sapiens, UniProt P04439, D140Y/D185E/D98H/E176V/E277Q/G131W/G231S/I119V/I121R/I166T/I218V/L300P/L318F/N151K/N90K/P208A/P217A/Q86G/Q94H/R138H/R169H/T345S)
PROCEDURE SUMMARY: MHC binding assay (UV-ligand exchange, beta2m ELISA)
CONDITION NOTES: binding to HLA-A*02:01 ranged by peptide exchange yield (UV-ligand exchange, β2m ELISA)
QUANTITY KIND: Peptide exchange

>>> recorded_measurement("370 (SLLQDLVSV; listed as Homo sapiens) [compound 370]")
"“+++” (≥50 = +++)"
>>> recorded_measurement("431 (SLVNVVPKL; listed as Homo sapiens) [compound 431]")
"“++” (≥20% = ++)"
>>> recorded_measurement("130 (FLWNGEDSALL; listed as Homo sapiens) [compound 130]")
"“+++” (≥50 = +++)"
>>> recorded_measurement("598 (FLFPHSVLV; listed as Homo sapiens) [compound 598]")
"“+++” (≥50 = +++)"
>>> recorded_measurement("545 (LLADLLHNV; listed as Homo sapiens) [compound 545]")
"“+++” (≥50 = +++)"

Look up Peptide exchange for this substance: 232 (ALLEAQDVELYL; listed as Homo sapiens) [compound 232]
“++” (≥20% = ++)

Look up Peptide exchange for this substance: 157 (SLNDEVPEV; listed as Homo sapiens) [compound 157]
“++” (≥20% = ++)
